assay.system: chimeric human RORγ-Gal4 receptor (Homo sapiens, UniProt P51449)
Sequence (P51449 269-508 limits assumed): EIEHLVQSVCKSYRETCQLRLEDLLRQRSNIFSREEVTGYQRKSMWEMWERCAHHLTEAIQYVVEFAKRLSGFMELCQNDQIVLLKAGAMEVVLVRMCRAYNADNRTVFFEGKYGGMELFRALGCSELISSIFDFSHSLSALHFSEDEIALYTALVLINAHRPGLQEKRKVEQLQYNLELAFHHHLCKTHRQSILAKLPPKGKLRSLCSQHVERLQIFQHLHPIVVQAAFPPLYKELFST
protocol: transient transactivation assay (RORγ-Gal4 luciferase reporter)
Assay type: cell-based
experimental.setup: Cos-7 cells transfected with RORγ-Gal4 and 5Gal4 pGL3 TK Luc reporter; overnight incubation; T0901317 at 10^-5 M as reference; read-out: IC50
pIC50: −log10 of the molar value.
Reported pIC50 is given for each of the following molecules.

Please review the following examples before continuing.
>>> df
                                   molecule  observable  assay_result
0  Cc1cc(C#N)cc2c1cc(C(=O)c1c(Cl)ccc(C(=O)N3CC(O)C3)c1Cl)n2C [AN-1]       pIC50  6.00 to 6.30
1  Cc1cc(C(F)(F)F)cc2cnn(Cc3c(Cl)ccc(C(=O)N4CCC(CC(=O)O)CC4)c3Cl)c12 [EC]       pIC50        > 7.00
2  Cc1cc(C#N)nc2c1nc(Cc1c(Cl)ccc(C(=O)N3CCOCC3)c1Cl)n2C [CI]       pIC50  5.00 to 6.00
3  Cc1cc(C#N)cc2c1nc(Cc1c(Cl)ccc(C(=O)N3CCC(C(C)(C)O)CC3)c1Cl)n2C [BN-7]       pIC50  6.30 to 7.00
4  Cc1cc(C(F)(F)F)cc2c1cc(Cc1c(Cl)ccc(C(=O)N3CC4(CC(C(=O)O)C4)C3)c1Cl)n2C [Example B-18]       pIC50        > 7.00
5  Cc1cc(C#N)cc2c1cc(Cc1c(Cl)cnc(C(=O)N3CCC(C4COC4)CC3)c1Cl)n2C [BF-1]       pIC50        > 7.00
6  Cn1c(Cc2c(Cl)ccc(C(=O)N3CCC(C(=O)O)CC3)c2Cl)cc2c(F)cc(C(F)(F)F)cc21 [FE-2]       pIC50        > 7.00

Looking up Cc1cc(C#N)cc2c1nc(Cc1c(Cl)ccc(C(=O)N3CCC(C4COC4)CC3)c1Cl)n2C [BN-12] , I found its pIC50 recorded as 6.30 to 7.00

This collection of values is drawn from patent US10106501B2.
